target of assay: Urease subunit alpha/Urease subunit beta (Helicobacter pylori (strain ATCC 700392 / 26695) (Campylobacterpylori)) (UniProt P69996+P14916)
Sequence (P14916 whole entry, looked up): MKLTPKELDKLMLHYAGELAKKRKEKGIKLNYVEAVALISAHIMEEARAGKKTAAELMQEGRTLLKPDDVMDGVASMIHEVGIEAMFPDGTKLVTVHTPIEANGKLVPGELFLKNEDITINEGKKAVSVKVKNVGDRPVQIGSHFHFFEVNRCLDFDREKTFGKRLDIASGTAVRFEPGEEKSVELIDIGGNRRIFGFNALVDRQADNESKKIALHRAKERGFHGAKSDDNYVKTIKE
Sequence (P69996 whole entry, looked up): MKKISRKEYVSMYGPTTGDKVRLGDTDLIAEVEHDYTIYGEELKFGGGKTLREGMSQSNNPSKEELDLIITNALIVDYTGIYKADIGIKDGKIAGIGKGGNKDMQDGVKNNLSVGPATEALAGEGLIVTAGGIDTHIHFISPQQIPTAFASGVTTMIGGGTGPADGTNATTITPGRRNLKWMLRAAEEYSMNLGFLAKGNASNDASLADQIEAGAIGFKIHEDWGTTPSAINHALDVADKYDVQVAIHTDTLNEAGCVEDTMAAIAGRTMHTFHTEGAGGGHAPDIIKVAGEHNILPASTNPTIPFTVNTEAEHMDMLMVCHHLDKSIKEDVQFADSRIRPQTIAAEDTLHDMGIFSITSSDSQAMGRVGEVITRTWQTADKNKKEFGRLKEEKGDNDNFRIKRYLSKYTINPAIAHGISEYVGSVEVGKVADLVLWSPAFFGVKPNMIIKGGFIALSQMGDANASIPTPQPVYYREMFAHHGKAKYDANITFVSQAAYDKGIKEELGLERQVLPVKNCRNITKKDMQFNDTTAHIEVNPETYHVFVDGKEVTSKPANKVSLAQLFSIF
test summary: Inhibition of Helicobacter pylori urease assessed as ammonia production at 100 uM preincubated for 3 hrs measured by indophenol method
Activity calls are given as the source filed them. The rule behind the calls is not given here.
property label: inhibition

O=C1C=C(NC2CCCC2)C(=O)C=C1NC1CCCC1    68.8%
O=C1C=C(NC2CCCCC2)C(=O)C=C1NC1CCCCC1    62.7%
O=C1C=C(NC2CC2)C(=O)C=C1NC1CC1    inactive
CC(=O)NO [ACETOHYDROXAMIC ACID]    85.2%
O=C1C=C(NCCN2CCOCC2)C(=O)C=C1NCCN1CCOCC1    81.6%

*Q* Given CC(C)NC1=CC(=O)C(NC(C)C)=CC1=O , state its recorded inhibition.
*A* inactive

*Q* Again, but for O=C1C=C(NCCNc2ccccc2)C(=O)C=C1NCCNc1ccccc1
*A* inactive
